Entries and their pIC50
- subject.of.test: recombinant mouse APA (Mus musculus)
- Sequence (P16406 whole entry): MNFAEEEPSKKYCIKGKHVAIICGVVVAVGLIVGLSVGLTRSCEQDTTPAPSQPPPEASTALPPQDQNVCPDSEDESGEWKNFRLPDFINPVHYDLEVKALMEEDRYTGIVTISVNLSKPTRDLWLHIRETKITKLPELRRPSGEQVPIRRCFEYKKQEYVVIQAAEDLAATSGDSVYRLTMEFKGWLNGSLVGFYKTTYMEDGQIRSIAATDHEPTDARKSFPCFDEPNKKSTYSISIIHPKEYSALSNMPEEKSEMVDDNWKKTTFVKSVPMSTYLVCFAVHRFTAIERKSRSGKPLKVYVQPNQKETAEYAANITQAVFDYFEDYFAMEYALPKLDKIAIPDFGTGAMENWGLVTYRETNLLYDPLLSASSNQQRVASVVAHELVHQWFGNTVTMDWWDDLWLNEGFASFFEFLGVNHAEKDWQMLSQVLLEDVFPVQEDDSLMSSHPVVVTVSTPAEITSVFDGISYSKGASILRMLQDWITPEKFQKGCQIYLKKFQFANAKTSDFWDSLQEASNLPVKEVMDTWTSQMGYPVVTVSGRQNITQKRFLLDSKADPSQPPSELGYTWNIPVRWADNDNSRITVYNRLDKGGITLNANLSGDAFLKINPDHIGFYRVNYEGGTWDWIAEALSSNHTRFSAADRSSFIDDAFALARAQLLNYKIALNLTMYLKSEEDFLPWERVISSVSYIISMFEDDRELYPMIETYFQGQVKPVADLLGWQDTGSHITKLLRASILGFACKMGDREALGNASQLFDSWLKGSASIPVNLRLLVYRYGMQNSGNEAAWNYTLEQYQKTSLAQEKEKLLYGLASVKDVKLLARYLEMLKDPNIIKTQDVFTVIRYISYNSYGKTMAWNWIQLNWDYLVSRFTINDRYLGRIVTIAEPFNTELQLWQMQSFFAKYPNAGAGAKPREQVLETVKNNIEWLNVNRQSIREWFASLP
- assay.info: Measurement of APA activity in vitro (GluβNa hydrolysis, microplate)
- measurement.parameters: 200 μM Glu-βNa, pH 7.4, 37° C., read-out: In vitro inhibition of aminopeptidase A, IC50 classification
pIC50: −log10 of the molar value.

// below: answered molecules
molecule: NC(CCC(=O)O)P(=O)(O)CCc1ccccc1OC(F)(F)F (stereo not shown)
value.measured: > 7.52
--
molecule: NC(CCC(=O)O)P(=O)(O)Cc1ccc(Oc2ccccc2)cc1 (stereo not shown)
value.measured: 6.52 to 7.52
--
molecule: COc1cccc(CP(=O)(O)C(N)CCC(=O)O)c1 (stereo not shown)
value.measured: > 7.52
--
molecule: NC(CCC(=O)O)P(=O)(O)CCCc1ccccc1 (stereo not shown)
value.measured: 6.52 to 7.52
--
molecule: Cc1cccc(CP(=O)(O)C(N)CCC(=O)O)c1 (stereo not shown)
value.measured: 6.52 to 7.52
--
molecule: N[C@@H](CCC(=O)O)P(=O)(O)CCc1ccccc1
value.measured: > 7.52
--
molecule: NC(CCC(=O)O)P(=O)(O)CCc1ccccc1 (stereo not shown)
value.measured: > 7.52
--
molecule: COc1ccc(CP(=O)(O)C(N)CCC(=O)O)cc1 (stereo not shown)
value.measured: 6.52 to 7.52
--
molecule: Cc1ccccc1CCP(=O)(O)C(N)CCC(=O)O (stereo not shown)
value.measured: > 7.52

Returns the measured pIC50 for the input molecule. Input: COc1c(Cl)cccc1CCP(=O)(O)C(N)CCC(=O)O (stereo not shown)
6.52 to 7.52
